# credit: patent US20180099931A1

Emax values, listed per item
# Target Entity: F508delCFTR (Homo sapiens, UniProt P13569, DEL508-508)
# Construct: expressed in transfected cells; host or cells: CFBE41o- human lung-derived epithelial cells (CFBE4lo-F508delCFTR-HRP), doxycycline-inducible
# Sequence (P13569 with tags, fused parts or gaps DEL508-508): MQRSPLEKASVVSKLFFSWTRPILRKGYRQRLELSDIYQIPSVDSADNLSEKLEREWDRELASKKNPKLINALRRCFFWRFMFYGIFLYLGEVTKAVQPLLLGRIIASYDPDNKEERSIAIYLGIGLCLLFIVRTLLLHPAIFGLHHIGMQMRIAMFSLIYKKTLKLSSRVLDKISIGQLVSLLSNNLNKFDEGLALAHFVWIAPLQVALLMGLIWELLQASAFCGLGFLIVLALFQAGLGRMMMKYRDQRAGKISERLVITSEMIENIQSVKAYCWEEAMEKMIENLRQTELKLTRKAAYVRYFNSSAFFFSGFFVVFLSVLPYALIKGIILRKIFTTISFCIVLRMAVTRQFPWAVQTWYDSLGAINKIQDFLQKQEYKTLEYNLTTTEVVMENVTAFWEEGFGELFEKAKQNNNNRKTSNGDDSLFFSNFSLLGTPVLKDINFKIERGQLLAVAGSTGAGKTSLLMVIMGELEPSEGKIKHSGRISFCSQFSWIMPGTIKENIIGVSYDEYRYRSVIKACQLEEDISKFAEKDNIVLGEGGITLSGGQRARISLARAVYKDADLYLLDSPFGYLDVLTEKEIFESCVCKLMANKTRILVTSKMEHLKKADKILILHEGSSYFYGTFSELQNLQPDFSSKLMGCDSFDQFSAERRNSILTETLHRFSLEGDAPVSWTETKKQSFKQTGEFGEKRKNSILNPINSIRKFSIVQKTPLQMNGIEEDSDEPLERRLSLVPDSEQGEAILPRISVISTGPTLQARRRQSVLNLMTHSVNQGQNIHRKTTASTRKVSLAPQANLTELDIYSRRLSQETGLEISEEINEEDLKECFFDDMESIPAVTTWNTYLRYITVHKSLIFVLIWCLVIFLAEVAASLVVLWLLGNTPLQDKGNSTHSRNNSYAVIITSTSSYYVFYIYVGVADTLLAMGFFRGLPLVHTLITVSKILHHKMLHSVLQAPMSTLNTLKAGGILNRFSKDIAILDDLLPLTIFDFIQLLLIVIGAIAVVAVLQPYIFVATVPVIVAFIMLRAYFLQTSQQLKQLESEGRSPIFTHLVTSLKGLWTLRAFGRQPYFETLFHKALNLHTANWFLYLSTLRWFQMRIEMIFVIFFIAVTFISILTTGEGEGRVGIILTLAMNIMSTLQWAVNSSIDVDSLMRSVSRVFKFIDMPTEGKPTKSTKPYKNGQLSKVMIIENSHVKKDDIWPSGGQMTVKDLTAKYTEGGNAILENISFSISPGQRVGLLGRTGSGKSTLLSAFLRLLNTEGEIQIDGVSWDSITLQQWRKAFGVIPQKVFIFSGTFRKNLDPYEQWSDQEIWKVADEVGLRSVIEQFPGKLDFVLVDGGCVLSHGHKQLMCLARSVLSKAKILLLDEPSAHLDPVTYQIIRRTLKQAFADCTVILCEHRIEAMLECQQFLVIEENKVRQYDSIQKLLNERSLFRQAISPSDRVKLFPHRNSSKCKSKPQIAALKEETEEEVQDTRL
# Test Method Notes: Cell Surface Expression-Horse Radish Peroxidase (CSE-HRP) Assay;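 note: percent of the 2 µM on-plate positive control corrector response above DMSO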
# Format: cell-based
# Measurement Conditions: CSE-HRP; without co-corrector; maximum at any tested concentration, normalized to on-plate positive control; read-out: Maximum % activity (without co-corrector)

Entry CC(C)(C)[C@H]1[C@H](NCc2cc(Cl)ccc2OC(F)F)[C@H](c2ccccc2)N(C(=O)C2CCCCC2)[C@@H]1C(=O)O : Emax on F508delCFTR (Homo sapiens, UniProt P13569, DEL508-508) = < 100%

For the compound COc1ccc(C(C)(C)C)cc1CN[C@H]1[C@H](C(C)(C)C)[C@@H](C(=O)O)N(C(=O)C2CC(=O)N(C(C)C)C2)[C@H]1c1ccccc1 (stereo partly drawn) , the measured Emax on F508delCFTR (Homo sapiens, UniProt P13569, DEL508-508) was 100 to 200%

Form: item COc1ccc(C(C)(C)C)cc1CN[C@H]1[C@H](C(C)(C)C)[C@@H](C(=O)O)N(C(=O)C[C@H]2OCCc3ccccc32)[C@H]1c1ccccc1 ; test system F508delCFTR (Homo sapiens, UniProt P13569, DEL508-508); Emax: > 200%

Emax for F508delCFTR (Homo sapiens, UniProt P13569, DEL508-508) with input COc1cc(C(F)(F)F)ccc1CN[C@H]1[C@H](C(C)(C)C)[C@@H](C(=O)O)N(C(=O)C2OC[C@@H]3CCC[C@H]23)[C@H]1c1ccccc1 (stereo partly drawn) equals 100 to 200%

Value sought: Emax, system F508delCFTR (Homo sapiens, UniProt P13569, DEL508-508), item Cc1ccc(C#N)c(N[C@H]2[C@H](C(C)(C)C)[C@@H](C(=O)O)N(C(=O)C3CCCCC3)[C@H]2c2ccccc2)n1 . Result: < 100%

Observed Emax, F508delCFTR (Homo sapiens, UniProt P13569, DEL508-508), COc1ncc(C(F)(F)F)cc1CN[C@H]1[C@H](C(C)(C)C)[C@@H](C(=O)O)N(C(=O)C2CCCCC2)[C@H]1c1ccccc1C : 100 to 200%

Emax on F508delCFTR (Homo sapiens, UniProt P13569, DEL508-508) for COc1ccc(C(C)(C)C)cc1CN[C@H]1[C@H](C(C)(C)C)[C@@H](C(=O)O)N(C(=O)C2CC(=O)N(C3CC3)C2)[C@H]1c1ccccc1 (stereo partly drawn) is 100 to 200%

Value sought: Emax, system F508delCFTR (Homo sapiens, UniProt P13569, DEL508-508), item COc1cc(OC(F)(F)F)ccc1CN[C@@H]1[C@@H](C(C)(C)C)[C@H](C(=O)O)N(C(=O)OC(C)C)[C@@H]1c1ccccc1 (racemic) . Result: > 200%

Emax value, target or system F508delCFTR (Homo sapiens, UniProt P13569, DEL508-508), for COc1cc(C(F)(F)F)ccc1CN[C@H]1[C@H](C(C)(C)C)[C@@H](C(=O)O)N(C(=O)OCC(C)C)[C@H]1c1ccccc1 : 100 to 200%

The compound COc1ncc(C2CCC2)cc1CN[C@H]1[C@H](C(C)(C)C)[C@@H](C(=O)O)N(C(=O)[C@@H]2CCCO2)[C@H]1c1ccccc1C(F)(F)F on F508delCFTR (Homo sapiens, UniProt P13569, DEL508-508): Emax was 100 to 200%

Record COc1cc(C(F)(F)F)ccc1CN[C@H]1[C@H](C(C)(C)C)[C@@H](C(=O)O)N(C(=O)[C@@H]2CCC[C@@H](OC)C2)[C@H]1c1ccccc1 has F508delCFTR (Homo sapiens, UniProt P13569, DEL508-508) Emax equal to < 100%

Response field Emax (F508delCFTR (Homo sapiens, UniProt P13569, DEL508-508)) for item Cc1cc(C(F)(F)F)cc(N[C@@H]2[C@@H](C)[C@H](C(=O)O)N(C(=O)N(C(C)C)C(C)C)[C@@H]2c2ccccc2)n1 : < 100%
